test system: SF-539; assay: Growth inhibition of human SF539 cells after 48 hrs by sulforhodamine B assay; format: functional; conditions: SF-539, 48 h
ENDPOINT: GI50 (nM)

1. O=c1[nH]cc(F)c(=O)[nH]1 ... 60
2. Cc1cc(O)ccc1C1=NN(c2ccc(S(C)(=O)=O)cc2)C(=O)CC1 ... 13200
3. CCc1ccc(C2=NN(c3ccc(S(C)(=O)=O)cc3)C(=O)CC2)cc1 ... 2350
4. Cc1ccc(C2=NN(c3ccc(S(C)(=O)=O)cc3)C(=O)CC2)cc1 ... 1020

---

test system: COLO 205; assay: Growth inhibition of human COLO205 cells after 48 hrs by sulforhodamine B assay; assay type: functional; conditions: COLO 205, 48 h
List of GI50 values.
ENDPOINT: GI50

1) Cc1cc(O)ccc1C1=NN(c2ccc(S(C)(=O)=O)cc2)C(=O)CC1 ... 6620 nM
2) Cc1ccc(C2=NN(c3ccc(S(C)(=O)=O)cc3)C(=O)CC2)cc1 ... 520 nM
3) O=c1[nH]cc(F)c(=O)[nH]1 [FLUOROURACIL] ... 150 nM
4) CCc1ccc(C2=NN(c3ccc(S(C)(=O)=O)cc3)C(=O)CC2)cc1 ... 1020 nM

---

Recorded inhibition in vivo at 50 µmol/kg, one value per entry.
system: Rattus norvegicus; assay: Antiinflammatory activity in Wistar rat assessed as inhibition of carrageenan-induced paw edema at 0.05 mmol/kg, po administered 30 mins prior challenge measured after 5 hrs; assay type: functional
ENDPOINT: inhibition in vivo at 50 µmol/kg (%)

1. COc1ccc(C2=NN(c3ccc(S(C)(=O)=O)cc3)C(=O)CC2)cc1OC ... 82.4
2. CC(C)(C)c1ccc(C2=NN(c3ccc(S(C)(=O)=O)cc3)C(=O)CC2)cc1 ... 68.4
3. COc1ccc(C2=NN(c3ccc(S(C)(=O)=O)cc3)C(=O)CC2)cc1 ... 68.4
4. Cc1cc(O)ccc1C1=NN(c2ccc(S(C)(=O)=O)cc2)C(=O)CC1 ... 52.6
5. CS(=O)(=O)c1ccc(N2N=C(c3ccc(-c4ccccc4)cc3)CCC2=O)cc1 ... 21
